RUN DESCRIPTION: Plasma pharmacokinetics in mice
CONDITION PARAMETERS: male, CD1, mouse, po, 20 mg/kg
MEASURED METRIC: AUC (µM·h)

{"STRUCTURE": "COc1cccc2c1nc(C(F)F)n2-c1nc(N2CCOCC2)nc(N2CCN(S(=O)(=O)CCN(C)C)CC2)n1", "MEASURED METRIC": "AUC", "RESULT NUMBER": 2.5}

----------
STUDY TARGET: panel of 442 kinases (Homo sapiens, UniProt P24723)
Construct: purchased Ambit Biosciences (scanMAXX KINOMEscan)
Sequence (P24723 whole entry): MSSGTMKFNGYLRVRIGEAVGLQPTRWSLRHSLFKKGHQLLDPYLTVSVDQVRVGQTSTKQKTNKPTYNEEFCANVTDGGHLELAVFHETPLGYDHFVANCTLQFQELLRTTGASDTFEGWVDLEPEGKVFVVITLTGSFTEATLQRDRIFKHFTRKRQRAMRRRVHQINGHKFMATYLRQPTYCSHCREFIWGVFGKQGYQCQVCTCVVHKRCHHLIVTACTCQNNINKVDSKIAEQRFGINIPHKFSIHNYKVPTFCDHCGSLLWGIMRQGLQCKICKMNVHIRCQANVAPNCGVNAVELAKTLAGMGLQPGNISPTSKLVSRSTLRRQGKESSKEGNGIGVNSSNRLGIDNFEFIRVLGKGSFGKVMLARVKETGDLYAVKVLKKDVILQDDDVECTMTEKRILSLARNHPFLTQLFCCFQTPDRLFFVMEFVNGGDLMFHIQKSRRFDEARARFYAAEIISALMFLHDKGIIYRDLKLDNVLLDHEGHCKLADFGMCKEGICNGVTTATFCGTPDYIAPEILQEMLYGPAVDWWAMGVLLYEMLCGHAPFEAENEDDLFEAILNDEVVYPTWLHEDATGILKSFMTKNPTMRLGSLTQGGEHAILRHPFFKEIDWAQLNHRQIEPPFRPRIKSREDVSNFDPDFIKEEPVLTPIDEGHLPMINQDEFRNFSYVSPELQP
RUN DESCRIPTION: biochemical
Format: binding
CONDITION PARAMETERS: kinase PRKCH; 1 µM; read-out: PRKCH (% of control at 1 µM)
MEASURED METRIC: remaining activity at 1 µM (%)

{"STRUCTURE": "Nc1cc(C(F)(F)F)c(-c2cc(N3CCOCC3)nc(N3CCOCC3)n2)cn1", "MEASURED METRIC": "remaining activity at 1 µM", "UNIT STRING": "%", "RESULT NUMBER": 99}
{"STRUCTURE": "FC(F)c1nc2ccccc2n1-c1nc(N2CCOCC2)nc(N2CCOCC2)n1", "MEASURED METRIC": "remaining activity at 1 µM", "UNIT STRING": "%", "RESULT NUMBER": 98}
{"STRUCTURE": "COc1ncc(-c2ccc3nccc(-c4ccnnc4)c3c2)cc1NS(=O)(=O)c1ccc(F)cc1F", "MEASURED METRIC": "remaining activity at 1 µM", "UNIT STRING": "%", "RESULT NUMBER": 100}
{"STRUCTURE": "Cn1c(=O)n(-c2ccc(C(C)(C)C#N)cc2)c2c3cc(-c4cnc5ccccc5c4)ccc3ncc21", "MEASURED METRIC": "remaining activity at 1 µM", "UNIT STRING": "%", "RESULT NUMBER": 78}
